system: 883617-216-R-J1-PDC complex spheroids, growth, % test/control; assay: Anticancer human tumor 883617-216-R-J1-PDC patient-derived bladder carcinoma cell line growth inhibition [AhR]; details: second compound 1 µM; first compound 0.316 µM; active compounds read low;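 further: exposure lasted 7 days after dosing on day 3 of spheroid growth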
observable: viability, T/C (%)

{"compound": "NS(=O)(=O)OCC1CC(n2ccc3c(NC4CCc5ccccc54)ncnc32)CC1O (configuration not stated) + Cc1cncc(-c2nc(NCCc3c[nH]c4ccccc34)c3ncn(C(C)C)c3n2)c1", "quantitative result": 212}
{"compound": "NS(=O)(=O)OCC1CC(n2ccc3c(NC4CCc5ccccc54)ncnc32)CC1O (configuration not stated) + CC(CO)NC(=O)c1cc(-c2ccc(Cl)cc2)nn(-c2cnn(C)c2)c1=O", "quantitative result": 109}
{"compound": "COc1ccc([C@@H](O)c2cc(-c3ncnc4cc(N5CCOCC5)ccc34)c(F)cc2Cl)nn1 + Cc1cncc(-c2nc(NCCc3c[nH]c4ccccc34)c3ncn(C(C)C)c3n2)c1", "quantitative result": 85.9}
{"compound": "O=C(C=Cc1cccc(S(=O)(=O)Nc2ccccc2)c1)NO + Cc1cncc(-c2nc(NCCc3c[nH]c4ccccc34)c3ncn(C(C)C)c3n2)c1", "quantitative result": 96.4}
{"compound": "CC1(C)CCC(CN2CCN(c3ccc(C(=O)NS(=O)(=O)c4ccc(NCC5CCOCC5)c([N+](=O)[O-])c4)c(Oc4cnc5[nH]ccc5c4)c3)CC2)=C(c2ccc(Cl)cc2)C1 + CC(CO)NC(=O)c1cc(-c2ccc(Cl)cc2)nn(-c2cnn(C)c2)c1=O", "quantitative result": 152}
{"compound": "Nc1ncn(C2CC(O)C(CO)O2)c(=O)n1 (configuration not stated) + Cc1cncc(-c2nc(NCCc3c[nH]c4ccccc34)c3ncn(C(C)C)c3n2)c1", "quantitative result": 86.1}
{"compound": "COc1cc(C2c3cc4c(cc3C(OC3OC5COC(C)OC5C(O)C3O)C3COC(=O)C23)OCO4)cc(OC)c1O (configuration not stated) + Cc1ccccc1N=Nc1ccc(NC(=O)c2ccnn2C)c(C)c1", "quantitative result": 75.7}
{"compound": "COc1cc(Nc2ncc3c(n2)-c2ccc(Cl)cc2C(c2c(F)cccc2OC)=NC3)ccc1C(=O)O + CC(CO)NC(=O)c1cc(-c2ccc(Cl)cc2)nn(-c2cnn(C)c2)c1=O", "quantitative result": 93.3}
{"compound": "Nc1ncn(C2CC(O)C(CO)O2)c(=O)n1 (configuration not stated) + Cc1ccccc1N=Nc1ccc(NC(=O)c2ccnn2C)c(C)c1", "quantitative result": 67.6}
{"compound": "COc1cccc2c1C(=O)c1c(O)c3c(c(O)c1C2=O)CC(O)(C(=O)CO)CC3OC1CC(N)C(O)C(C)O1 (configuration not stated) + Cc1ccccc1N=Nc1ccc(NC(=O)c2ccnn2C)c(C)c1", "quantitative result": 51.5}
{"compound": "COc1ccc([C@@H](O)c2cc(-c3ncnc4cc(N5CCOCC5)ccc34)c(F)cc2Cl)nn1 + CC(CO)NC(=O)c1cc(-c2ccc(Cl)cc2)nn(-c2cnn(C)c2)c1=O", "quantitative result": 55.9}
{"compound": "Nc1ccn(C2OC(CO)C(O)C2(F)F)c(=O)n1 (configuration not stated) + Cc1cncc(-c2nc(NCCc3c[nH]c4ccccc34)c3ncn(C(C)C)c3n2)c1", "quantitative result": 39.3}

Reference source for all entries: PubChem BioAssay AID1919004
